biological target: protein-protein interaction between Kras and SOS1 (biotin-tagged human Kras loaded with GDP, His-tagged human SOS1) (Homo sapiens (Human), UniProt P01116, G12D); test: Protein-protein interaction inhibition between Kras and SOS1 (KrasG12D-SOS PPI) using AlphaScreen; format: biochemical; conditions: AlphaScreen; biotin-tagged human Kras loaded with GDP, His-tagged human SOS1; read-out: KRAS G12D-SOS PPI IC50
Numbered stars: 1 amine (or outer) side, 2 acyl side, 3 side chain; on linkers, the order of the positions; unused ones are H or OH. Bridge positions count the residues as written; N and C are the ends. Square brackets hold non-standard residues; d marks the D form. Peptide text beside a SMILES is read from it. * marks the point of attachment. hPhe(3,5-F2-4-CF3) = N[C@@H](CCc1cc(F)c(C(F)(F)F)c(F)c1)C(=O)O; hPhe(3-Cl-4-CF3) = N[C@@H](CCc1ccc(C(F)(F)F)c(Cl)c1)C(=O)O; NMePhe(4-CF3) = CN[C@@H](Cc1ccc(C(F)(F)F)cc1)C(=O)O; NPrAsp = CCCN([C@@H](CC(=O)[*:3])C(=O)[*:2])[*:1]; NMedβ3hAla = C[C@H](CC(=O)[*:2])N(C)[*:1]; NMeGly(cPent) = CN[C@H](C(=O)O)C1CCCC1; NMeGly(cBu) = CN[C@H](C(=O)O)C1CCC1; Hyp = O=C(O)[C@@H]1C[C@@H](O)CN1; NMeL = CN[C@@H](CC(C)C)C(=O)O; NMeA = CN[C@@H](C)C(=O)O; Piperidide = C1CCN(*)CC1; Ac5c = NC1(C(=O)O)CCCC1; Aze = O=C(O)[C@@H]1CCN1; Sar = CNCC(=O)O
measured_quantity: IC50 (nM)
Numeric answer only, unit nM assumed.

Asked: Which IC50 is listed for CCCN1C(=O)[C@H](C2CCCC2)N(C)C(=O)C2(CCCC2)NC(=O)[C@@H]2CCCN2C(=O)[C@H](CCc2ccc(C(F)(F)F)c(Cl)c2)NC(=O)CN(C)C(=O)[C@H](C2CCC2)N(C)C(=O)[C@@H]2CCN2C(=O)[C@H](C)N(C)C(=O)[C@H]([C@@H](C)CC)NC(=O)[C@H](CC(C)C)N(C)C(=O)C[C@H]1C(=O)N1CCCCC1 [Compound 524] ([NMeL]I[NMeA][Aze][NMeGly(cBu)][Sar][hPhe(3-Cl-4-CF3)]P[Ac5c][NMeGly(cPent)][NPrAsp]-Piperidide; lactam N-11) ?
Given back: 82

Asked: Which IC50 is listed for CCO[C@@H]1C[C@H]2C(=O)NC3(CCCC3)C(=O)N(C)[C@@H](C3CCCC3)C(=O)N(C)[C@H](C)CC(=O)N(C)[C@@H](CC(C)C)C(=O)N[C@@H]([C@@H](C)CC)C(=O)N(C)[C@@H](C)C(=O)N3CC[C@H]3C(=O)N(C)[C@@H](Cc3ccc(C(F)(F)F)cc3)C(=O)N(C)CC(=O)N[C@@H](CCc3cc(F)c(C(F)(F)F)c(F)c3)C(=O)N2C1 [Compound 344] (cyclo([Ac5c][NMeGly(cPent)][NMedβ3hAla][NMeL]I[NMeA][Aze][NMePhe(4-CF3)][Sar][hPhe(3,5-F2-4-CF3)][Hyp](Et))) ?
Given back: 0.83

###

target: protein-protein interaction between Kras and SOS1 (biotin-tagged human Kras loaded with GDP, His-tagged human SOS1) (Homo sapiens (Human), UniProt P01116, G12D); test: Protein-protein interaction inhibition between Kras and SOS1 (KrasG12D-SOS PPI) using AlphaScreen; format: biochemical; details: AlphaScreen; biotin-tagged human Kras loaded with GDP, His-tagged human SOS1; read-out: KRAS G12D-SOS PPI IC50
Numbered stars: 1 amine (or outer) side, 2 acyl side, 3 side chain; on linkers, the order of the positions; unused ones are H or OH. Bridge positions count the residues as written; N and C are the ends. Square brackets hold non-standard residues; d marks the D form. Peptide text beside a SMILES is read from it. * marks the point of attachment. hPhe(3-Cl-4-CF3) = N[C@@H](CCc1ccc(C(F)(F)F)c(Cl)c1)C(=O)O; NMe3Pal = CN[C@@H](Cc1cccnc1)C(=O)O; X78 = O=C(CN(CCc1cccnc1)[*:1])[*:2]; NMeCha = CN[C@@H](CC1CCCCC1)C(=O)O; NMeChg = CN[C@H](C(=O)O)C1CCCCC1; NMeD = CN[C@@H](CC(=O)O)C(=O)O; NMeL = CN[C@@H](CC(C)C)C(=O)O; NMeA = CN[C@@H](C)C(=O)O; Piperidide = C1CCN(*)CC1; Ac5c = NC1(C(=O)O)CCCC1; Sar = CNCC(=O)O
For each entry below, report its IC50 value.
Numeric answer only, unit nM assumed.

Asked: Which IC50 is listed for CC[C@H](C)[C@@H]1NC(=O)[C@H](C)N(C)C(=O)C[C@@H](C(=O)N2CCCCC2)N(C)C(=O)[C@H](C2CCCCC2)N(C)C(=O)C2(CCCC2)NC(=O)[C@H](Cc2cccnc2)N(C)C(=O)[C@H](CCc2ccc(C(F)(F)F)c(Cl)c2)NC(=O)CN(C)C(=O)[C@H](CC2CCCCC2)N(C)C(=O)CN(C)C(=O)CN(C)C1=O [Compound 1012] ([NMeA]I[Sar][Sar][NMeCha][Sar][hPhe(3-Cl-4-CF3)][NMe3Pal][Ac5c][NMeChg][NMeD]-Piperidide; lactam N-11) ?
Given back: 1.2

Asked: Which IC50 is listed for CC[C@H](C)[C@@H]1NC(=O)[C@H](CC(C)C)N(C)C(=O)C[C@@H](C(=O)N2CCCCC2)N(C)C(=O)[C@H](C2CCCCC2)N(C)C(=O)C2(CCCC2)NC(=O)CN(CCc2cccnc2)C(=O)[C@H](CCc2ccc(C(F)(F)F)c(Cl)c2)NC(=O)CN(C)C(=O)[C@H](CC2CCCCC2)N(C)C(=O)CN(C)C(=O)CN(C)C1=O [Compound 2032] ([NMeL]I[Sar][Sar][NMeCha][Sar][hPhe(3-Cl-4-CF3)][X78][Ac5c][NMeChg][NMeD]-Piperidide; lactam N-11 (inferred); C-terminus assumed) ?
Given back: 1.2

###

biological target: protein-protein interaction between Kras and SOS1 (biotin-tagged human Kras loaded with GDP, His-tagged human SOS1) (Homo sapiens (Human), UniProt P01116, G12D); assay: Protein-protein interaction inhibition between Kras and SOS1 (KrasG12D-SOS PPI) using AlphaScreen; type: biochemical; conditions: AlphaScreen; biotin-tagged human Kras loaded with GDP, His-tagged human SOS1; read-out: KRAS G12D-SOS PPI IC50;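 further: kras produced in E. coli, Ni-coupled donor beads and streptavidin acceptor beads, excitation 680 nm with emission detected at 520–620 nm via singlet oxygen transfer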
Numbered stars: 1 amine (or outer) side, 2 acyl side, 3 side chain; on linkers, the order of the positions; unused ones are H or OH. Bridge positions count the residues as written; N and C are the ends. Square brackets hold non-standard residues; d marks the D form. Peptide text beside a SMILES is read from it. * marks the point of attachment. hPhe(3,5-F2-4-CF3) = N[C@@H](CCc1cc(F)c(C(F)(F)F)c(F)c1)C(=O)O; hPhe(3-Cl-4-CF3) = N[C@@H](CCc1ccc(C(F)(F)F)c(Cl)c1)C(=O)O; hPhe(4-CF3) = N[C@@H](CCc1ccc(C(F)(F)F)cc1)C(=O)O; NMePhe(4-Cl) = CN[C@@H](Cc1ccc(Cl)cc1)C(=O)O; NMePhe(2-Cl) = CN[C@@H](Cc1ccccc1Cl)C(=O)O; X2 = COc1ccc(CC[C@H](N[*:1])C(=O)[*:2])cn1; NMeGly(cPent) = CN[C@H](C(=O)O)C1CCCC1; NMeCha = CN[C@@H](CC1CCCCC1)C(=O)O; X4 = C#CC[C@H](CC(=O)[*:2])N[*:1]; Hyp = O=C(O)[C@@H]1C[C@@H](O)CN1; NMeT = CN[C@H](C(=O)O)[C@@H](C)O; NMeD = CN[C@@H](CC(=O)O)C(=O)O; NMeL = CN[C@@H](CC(C)C)C(=O)O; NMeV = CN[C@H](C(=O)O)C(C)C; d(β3hA) = C[C@@H](N)CC(=O)O; NMeA = CN[C@@H](C)C(=O)O; Piperidide = C1CCN(*)CC1; Pyrrolidide = C1CCN(*)C1; Ac5c = NC1(C(=O)O)CCCC1; Aze = O=C(O)[C@@H]1CCN1; Aib = CC(C)(N)C(=O)O; Bn = c1ccc(C*)cc1; Sar = CNCC(=O)O
For each entry below, report its log10 of IC50 value.
A difference of one corresponds to tenfold IC50; all values are log10 with IC50 in nM.

Asked: Which log10 of IC50 is listed for CC[C@H](C)[C@@H]1NC(=O)[C@H](C)N(C)C(=O)C[C@@H](C)NC(=O)[C@H](CC(C)C)N(C)C(=O)C(C)(C)NC(=O)[C@H](CC(C)C)N(C)C(=O)[C@H](CCc2ccc(C(F)(F)F)cc2)NC(=O)CN(C)C(=O)[C@H]([C@@H](C)OCc2ccccc2)N(C)C(=O)CN(C)C(=O)CN(C)C1=O [Compound 1067] (cyclo([Aib][NMeL][d(β3hA)][NMeA]I[Sar][Sar][NMeT](Bn)[Sar][hPhe(4-CF3)][NMeL])) ?
Given back: 2.46

Asked: Which log10 of IC50 is listed for CCO[C@@H]1C[C@H]2C(=O)NC3(CCCC3)C(=O)N(C)[C@@H](C3CCCC3)C(=O)N(C)[C@H](C(=O)N3CCCC3)CC(=O)N(C)[C@@H](CC(C)C)C(=O)N[C@@H]([C@@H](C)CC)C(=O)N(C)CC(=O)N(C)CC(=O)N(C)[C@@H](CC3CCCCC3)C(=O)N(C)CC(=O)N[C@@H](CCc3cc(F)c(C(F)(F)F)c(F)c3)C(=O)N2C1 [Compound 1162] ([NMeL]I[Sar][Sar][NMeCha][Sar][hPhe(3,5-F2-4-CF3)][Hyp](Et)[Ac5c][NMeGly(cPent)][NMeD]-Pyrrolidide; lactam N-11) ?
Given back: -0.24

Asked: Which log10 of IC50 is listed for CC[C@H](C)[C@@H]1NC(=O)[C@H](CC(C)C)N(C)C(=O)C[C@@H](C(=O)N2CCCCC2)N(C)C(=O)[C@H](C2CCCC2)N(C)C(=O)C2(CCCC2)NC(=O)[C@@H]2CCCN2C(=O)[C@H](CCc2ccc(OC)nc2)NC(=O)CN(C)C(=O)[C@H](CC2CCCCC2)N(C)C(=O)[C@@H]2CCN2C(=O)[C@H](C)N(C)C1=O [Compound 2084] ([NMeL]I[NMeA][Aze][NMeCha][Sar][X2]P[Ac5c][NMeGly(cPent)][NMeD]-Piperidide; lactam N-11 (inferred); C-terminus assumed) ?
Given back: 2.11

Asked: Which log10 of IC50 is listed for C#CC[C@@H]1CC(=O)N(C)[C@@H](C(C)C)C(=O)N[C@@H]([C@@H](C)CC)C(=O)N(C)CC(=O)N(C)CC(=O)N(C)[C@@H](Cc2ccc(Cl)cc2)C(=O)N(C)CC(=O)N[C@@H](CCc2ccc(C(F)(F)F)cc2)C(=O)N(C)[C@@H](CC(C)C)C(=O)NC2(CCCC2)C(=O)N(C)[C@@H](CC(C)C)C(=O)N1 [Compound 669] (cyclo([Ac5c][NMeL][X4][NMeV]I[Sar][Sar][NMePhe(4-Cl)][Sar][hPhe(4-CF3)][NMeL])) ?
Given back: 2.34

Asked: Which log10 of IC50 is listed for CC[C@H](C)[C@@H]1NC(=O)[C@H](C)N(C)C(=O)C[C@@H](C(=O)N2CCCCC2)N(C)C(=O)[C@H](C(C)C)N(C)C(=O)C2(CCCC2)NC(=O)[C@H](Cc2ccccc2Cl)N(C)C(=O)[C@H](CCc2ccc(C(F)(F)F)c(Cl)c2)NC(=O)CN(C)C(=O)[C@H](CC2CCCCC2)N(C)C(=O)CN(C)C(=O)CN(C)C1=O [Compound 963] ([NMeA]I[Sar][Sar][NMeCha][Sar][hPhe(3-Cl-4-CF3)][NMePhe(2-Cl)][Ac5c][NMeV][NMeD]-Piperidide; lactam N-11) ?
Given back: 1.11
